test system: CCRF-CEM; assay: Cytotoxicity against deoxynucleoside analogue-sensitive human CCRF-CEM cells after 3 days by MTT assay; type: functional, cell-based; conditions: 72 h
PROPERTY_NAME: pIC50
As a rule, pIC50 stands for the negative log10 of the concentration, concentration in M.

QUERY: Could you tell me which pIC50 is on file for Nc1ccn([C@@H]2O[C@H](CO)[C@@H](O)[C@@H]2O)c(=O)n1 [CYTARABINE] ?
RESULT: 9.00
